The reported measurements were obtained from the Kinase Knowledgebase extract (Sharma et al. 2016).

- System: MAPK14 (human) (UniProt Q16539)
- Sequence (Q16539 whole entry, looked up): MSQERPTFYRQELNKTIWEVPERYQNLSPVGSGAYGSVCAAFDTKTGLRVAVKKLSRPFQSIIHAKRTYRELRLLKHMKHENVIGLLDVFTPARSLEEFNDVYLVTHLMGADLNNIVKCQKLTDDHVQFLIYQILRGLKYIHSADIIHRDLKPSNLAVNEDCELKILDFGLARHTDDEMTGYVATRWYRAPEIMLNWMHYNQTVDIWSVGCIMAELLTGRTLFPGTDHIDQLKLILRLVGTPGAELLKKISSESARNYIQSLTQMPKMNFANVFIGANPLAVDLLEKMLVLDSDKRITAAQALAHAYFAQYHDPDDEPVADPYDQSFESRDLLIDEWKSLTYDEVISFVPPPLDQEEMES
- Protocol summary: Inhibition of LPS Stimulated TNF Production by U937 Cells
Reported metric: pIC50
Field pIC50 (float): negative decimal logarithm of the concentration in molar.

{"columns": ["Chemical string", "Reported metric", "Observed value"],
 "data": [
  ["O=C(c1ccc(I)cc1)N1CCC(c2[nH]nc(-c3ccc(F)cc3)c2-c2ccncc2)CC1", "pIC50", 6.57]
]}

Shifting focus to the compound that follows.
GET /value?item= `CCNC(=O)N1CCC(c2[nH]nc(-c3ccc(F)cc3)c2-c2ccncc2)CC1` &field=pIC50 returns 6.14

---

- System: MAPK14 (human)
- Protocol summary: Inhibition of MAPK14 Kinase Activity by PHAS-I Assay
- Condition info: concentration not given here
Reported inhibition is given for each of the following molecules.
Answer with a number only, understood to be in %.

{"columns": ["Molecule", "Reported metric", "Display unit", "Observed value"],
 "data": [
  ["Cc1c(-c2ccncc2)c(-c2ccc(F)cc2)nn1CC(=O)NC1CCCCC1", "inhibition", "%", 49]
]}

response.value for `O=S(=O)(/C=C/c1ccccc1)NCCc1[nH]nc(-c2ccc(F)cc2)c1-c1ccncc1` (field: inhibition) = 58

The reported value for `COc1ccc(S(=O)(=O)NCCc2[nH]nc(-c3ccc(F)cc3)c2-c2ccncc2)cc1OC` in terms of inhibition is 70

Briefly, inhibition measured for `COc1cccc(NC(=O)NCCc2[nH]nc(-c3ccc(F)cc3)c2-c2ccncc2)c1` : 68

---

Parameter inhibition: see the listing below.
- System: MAPK14 (human) (UniProt Q16539)
- Protocol summary: Inhibition of MAPK14 Kinase Activity by PHAS-I Assay
- Condition info: concentration not given here
Write the number in % without appending the unit.

{"columns": ["Compound", "System", "Display unit", "inhibition"],
 "data": [
  ["COCC(C)NC(=O)Cn1nc(-c2ccc(F)cc2)c(-c2ccncc2)c1C (stereo not given)", "MAPK14 (human) (UniProt Q16539)", "%", 60],
  ["COCC(=O)NCCCc1[nH]nc(-c2ccc(F)cc2)c1-c1ccncc1", "MAPK14 (human) (UniProt Q16539)", "%", 78],
  ["Cc1c(-c2ccncc2)c(-c2ccc(F)cc2)nn1CC(=O)Nc1ccc(Cl)nc1", "MAPK14 (human) (UniProt Q16539)", "%", 94]
]}

Summary for this compound, `CC(=O)Oc1cccc(C(=O)NCc2[nH]nc(-c3ccc(F)cc3)c2-c2ccncc2)c1` : inhibition is 98

Form field inhibition, entry CCOC(=O)C(CCSC)NC(=O)NCc1[nH]nc(-c2ccc(F)cc2)c1-c1ccncc1 (stereo not given) : 44

Data point: `O=C(NCc1[nH]nc(-c2ccc(F)cc2)c1-c1ccncc1)c1cccc2ccccc12` ; inhibition = 91

# inhibition of `Cc1c(-c2ccncc2)c(-c2ccc(F)cc2)nn1CC(=O)NC1CCC1` = 81

Lab book: inhibition of `Cc1c(-c2ccncc2)c(-c2ccc(F)cc2)nn1CC(=O)Nc1ccccc1C(F)(F)F` noted as 86

// inhibition value for COC(=O)C(C)NC(=O)Cn1nc(-c2ccc(F)cc2)c(-c2ccncc2)c1C (stereo not given) : 44

The recorded inhibition for entry `O=C(NCCc1[nH]nc(-c2ccc(F)cc2)c1-c1ccncc1)Nc1ccc(Cl)c(Cl)c1` equals 79

So, `Cc1ccc(C(=O)NCCCc2[nH]nc(-c3ccc(F)cc3)c2-c2ccncc2)cc1` ? Its inhibition was 86

For reference, reported inhibition for `O=C(NCCCc1[nH]nc(-c2ccc(F)cc2)c1-c1ccncc1)c1ccccc1I` stands at 66

compound `COC(=O)[C@@H]1CCCN1C(=O)Cn1nc(-c2ccc(F)cc2)c(-c2ccncc2)c1C` , inhibition observed: 60

inhibition measured on `O=C(NCCc1[nH]nc(-c2ccc(F)cc2)c1-c1ccncc1)Nc1ccc(Oc2ccccc2)cc1` = 63

The reported inhibition of the compound Cc1c(-c2ccncc2)c(-c2ccc(F)cc2)nn1CC(=O)NC1CCN(Cc2ccccc2)C1 (stereo not given) was 73
